System: UACC-62 melanoma
Assay: NCI tumour cell line growth inhibition, 48 h
value_type: TGI

compound | assayed_target | value_type | result
O=C(O)C(Cl)(c1ccccc1)c1ccccc1 | UACC-62 melanoma | TGI | > 100 µM
Nc1nc(N)c2cc(NCc3ccc(Cl)c(Cl)c3)ccc2n1 | UACC-62 melanoma | TGI | 2.7 µM
NC(=O)c1cccc(Nc2nccc(Nc3cccc4[nH]ncc34)n2)c1 | UACC-62 melanoma | TGI | > 25 µM
Cc1ccc(C)c(C2NC(=O)c3ccccc3N2)c1 (stereo unspecified) | UACC-62 melanoma | TGI | > 70.3 µM
CC(=O)NC1=C[C@@H]([C@H]2COC(C)(C)O2)OC1=O | UACC-62 melanoma | TGI | > 100 µM

*Q* Enter reported TGI observed with UACC-62 melanoma for `O=C1/C(=C\c2ccccn2)c2ccccc2N1c1c(Cl)cccc1Cl`
*A* 3.68 µM

*Q* Same thing, different compound: COc1cccc(C2c3cc4c(cc3OC(N3CCCC3)C2C)OCO4)c1O (stereo unspecified)
*A* 43.7 µM

*Q* Same thing, different compound: `O=C(NCc1cccc2ccccc12)N/N=C\c1ccc(Cl)cc1`
*A* > 100 µM

*Q* Same thing, different compound: `CCCCCCCCCCCCOCCCOP(=O)([O-])OCC[N+](C)(C)C`
*A* > 83.9 µM

*Q* Same thing, different compound: N#C/C(=C1\SC(N=Nc2ccccc2)C(=O)N1c1ccccc1)c1nc2ccccc2[nH]1 (stereo unspecified)
*A* > 100 µM

*Q* Same thing, different compound: CN/N=C(\C)C(CN(C)C)C(c1ccccc1)c1c(O)c2ccccc2oc1=O (stereo unspecified)
*A* > 100 µM

###

System: UACC-257 melanoma
Experiment: NCI tumour cell line growth inhibition, 48 h
value_type: TGI (µM)
Provide only the numeric value, understood in µM.

Would you please look over these solved cases?
structure_string | TGI (µM)
CCCCCCCCCCCCOCCCOP(=O)([O-])OCC[N+](C)(C)C | 98.9
Cc1c(C(=O)/C=C/c2ccccc2O)c(=O)n(-c2ccccc2)n1C | 89.7

Next molecule, TGI to be filled in.
*Q* Enter reported TGI observed with UACC-257 melanoma for `COC(=O)[C@H](Cc1c[nH]c2ccccc12)NC(=O)c1ccc(CNC(=O)/C=C/c2cccc(Oc3ccccc3)c2)cc1`
*A* 40.3

###

System: SF-268 CNS
Experiment: NCI tumour cell line growth inhibition, 48 h
Listed next: entries and their corresponding GI50.

compound | GI50
CNC(=O)Cc1nc(-c2cccc(NS(=O)(=O)c3c(F)cccc3F)c2F)c(-c2ccnc(Nc3ccccc3)n2)s1 | 6.98 µM
CCCC(CCC)C(=O)OCC1(CO)C/C(=C\c2ccc(F)cc2)C(=O)O1 (stereo not given) | 13.2 µM
COc1ccc2nc3cc([N+](=O)[O-])ccc3c(NCCCN(C)C)c2c1 | 0.295 µM

*Q* Please look up its GI50: CCN(CC)CCCC(C)N=C(C1=C(C(=NC(C)CCCN(CC)CC)c2cccc(OC)c2)C(=O)NC1=O)c1cccc(OC)c1 (stereo not given)
*A* 1.97 µM

*Q* Same thing, different compound: CCOC(=O)CC1C(COC(=O)NC)OC(n2cnc3c(NC(=O)Nc4ccccc4)ncnc32)C1O[Si](C)(C)C(C)(C)C (stereo not given)
*A* 5.06 µM

*Q* Same thing, different compound: `COc1cc(CNc2ccccc2C(=O)N2CCN(C(=O)c3cc(-c4cc(OC)c(OC)c(OC)c4)n4nc(-c5ccccc5)cc4n3)CC2)cc(OC)c1OC`
*A* 4.89 µM

*Q* Same thing, different compound: `O=C(OCc1ncc(-c2ccc(C(F)(F)F)cc2)c(NC2CCCCCC2)n1)c1c(F)c(F)c(F)c(F)c1F`
*A* 12.9 µM

*Q* Same thing, different compound: `COc1cc(-c2nc(-c3nc4ccccc4[nH]3)cc3c2[nH]c2ccccc23)cc(OC)c1OC`
*A* 4.81 µM

*Q* Same thing, different compound: CCC(CNc1cc(OC)cc2cccnc12)NC1CCCCC1 (stereo not given)
*A* 33.2 µM

*Q* Same thing, different compound: `Nc1nc(Cl)c(N=Nc2ccc(Cl)cc2)c(NCC2(CO)CCC2)n1`
*A* 46.3 µM
